- Test summary: Stabilization of 5'-FAM/3'-TAMRA labeled c-myc promoter i-motif DNA FPy33T (unknown origin) assessed as change in melting temperature at 1 uM by FRET assay (reference value: 53.2 degreeC)
Everything with ΔTm lower than 2 °C is class 0; everything else, including exactly 2 °C, is class 1.

| Input smiles | Cat |
| --- | --- |
| COC(=O)c1ccc2nc3ccc(C)cc3c(NCCOCCOCCNc3c4cc(C)ccc4nc4ccc(C(=O)OC)cc34)c2c1 | class 0 |
| Cc1ccc2nc3ccc(C)cc3c(NCCN(C)C)c2c1 | class 1 |
| Cc1ccc2nc3ccccc3c(NCCCCCCCNc3c4ccccc4nc4ccc(C)cc34)c2c1 | class 1 |
| Cc1ccc2nc3ccc(C(=O)NCCCN(C)C)cc3c(NCCCNCCNCCCNc3c4cc(C)ccc4nc4ccc(C(=O)NCCCN(C)C)cc34)c2c1 | class 1 |
| Cc1ccc2nc3ccc(C)cc3c(NCCCN(C)CCCNc3c4cc(C)ccc4nc4ccc(C)cc34)c2c1 | class 1 |
| Cc1ccc2nc3ccc(C)cc3c(NCCCNc3c4cc(C)ccc4nc4ccc(C)cc34)c2c1 | class 1 |
| Cc1ccc2nc3ccc(C)cc3c(NCCOCCOCCNc3c4cc(C)ccc4nc4ccc(C)cc34)c2c1 | class 0 |
| Cc1ccc2nc3ccccc3c(NCCCN(C)CCCNc3c4ccccc4nc4ccc(C)cc34)c2c1 | class 1 |
| Cc1ccc2nc3ccccc3c(NCCCCCNc3c4ccccc4nc4ccc(C)cc34)c2c1 | class 0 |
| Cc1ccc2nc3ccc(C)cc3c(NCCCCCNc3c4cc(C)ccc4nc4ccc(C)cc34)c2c1 | class 0 |
| Cc1ccc2nc3ccccc3c(NCCCCNc3c4ccccc4nc4ccc(C)cc34)c2c1 | class 0 |
| Cc1ccc2nc3ccccc3c(NCCOCCOCCNc3c4ccccc4nc4ccc(C)cc34)c2c1 | class 0 |
| c1ccc2c(NCCCNCCNCCCNc3c4ccccc4nc4ccccc34)c3ccccc3nc2c1 | class 1 |
| c1ccc2c(NCCOCCOCCNc3c4ccccc4nc4ccccc34)c3ccccc3nc2c1 | class 0 |

----------
Collected pIC50 values appear next to each entry.
- System: SiHa
- Test summary: Antiproliferative activity against human SiHa cells after 48 hrs by MTT assay
- Format: functional, cell-based
pIC50: −log10 of the molar value.
Property measured: pIC50

| Input smiles | Assay result |
| --- | --- |
| c1ccc2c(NCCCNCCNCCCNc3c4ccccc4nc4ccccc34)c3ccccc3nc2c1 | 5.70 |
| Cc1ccc2nc3ccc(C)cc3c(NCCCCNc3c4cc(C)ccc4nc4ccc(C)cc34)c2c1 | 5.43 |
| Cc1ccc2nc3ccccc3c(NCCCCNc3c4ccccc4nc4ccc(C)cc34)c2c1 | 5.61 |
| Cc1ccc2nc3ccc(C)cc3c(NCCCNc3c4cc(C)ccc4nc4ccc(C)cc34)c2c1 | 5.42 |

----------
- Subject of test: ssDNA
- Test summary: Binding affinity to 5'-biotin labeled single-stranded DNA Py33 (unknown origin) by surface plasmon resonance method
Collected Kd values appear next to each entry.

| Input smiles | Kd |
| --- | --- |
| Cc1ccc2nc3ccc(C)cc3c(NCCCCNc3c4cc(C)ccc4nc4ccc(C)cc34)c2c1 | 6.8 µM |
| COC(=O)c1ccc2nc3ccc(C)cc3c(NCCOCCOCCNc3c4cc(C)ccc4nc4ccc(C(=O)OC)cc34)c2c1 | 2.9 µM |
| Cc1ccc2nc3ccc(C)cc3c(NCCCN(C)CCCNc3c4cc(C)ccc4nc4ccc(C)cc34)c2c1 | 13.9 µM |

----------
- Tested on: Quadruplex DNA
- Test summary: Stabilization of 5'-FAM/3'-TAMRA labeled c-myc promoter G-quadruplex DNA FPu22T (unknown origin) assessed as change in melting temperature at 1 uM by FRET assay (reference value: 66.5 degreeC)
- Type: nucleic-acid assay
Please assign false whenever ΔTm is at or above 10 °C, and true whenever it is below.

| Input smiles | Cat |
| --- | --- |
| c1ccc2c(NCCNCCNc3c4ccccc4nc4ccccc34)c3ccccc3nc2c1 | false |
| Cc1ccc2nc3ccc(C)cc3c(NCCCCCCCNc3c4cc(C)ccc4nc4ccc(C)cc34)c2c1 | false |
| Cc1ccc2nc3ccc(C)cc3c(NCCCCCCNc3c4cc(C)ccc4nc4ccc(C)cc34)c2c1 | false |
| Cc1ccc2nc3ccc(C)cc3c(NCCN(C)C)c2c1 | true |
| Cc1ccc2nc3ccccc3c(NCCCCNc3c4ccccc4nc4ccc(C)cc34)c2c1 | false |

----------
- Test system: HeLa
- Test summary: Antiproliferative activity against human Hela cells after 48 hrs by MTT assay
- Type: functional, cell-based
pIC50: −log10 of the molar value.
Collected pIC50 values appear next to each entry.
Property measured: pIC50

| Input smiles | Assay result |
| --- | --- |
| Cc1ccc2nc3ccc(C)cc3c(NCCCN(C)CCCNc3c4cc(C)ccc4nc4ccc(C)cc34)c2c1 | 6.07 |
| Cc1ccc2nc3ccc(C)cc3c(NCCOCCOCCNc3c4cc(C)ccc4nc4ccc(C)cc34)c2c1 | 5.87 |
| Cc1ccc2nc3ccc(C)cc3c(NCCCCNc3c4cc(C)ccc4nc4ccc(C)cc34)c2c1 | 5.83 |
| Cc1ccc2nc3ccccc3c(NCCCCNc3c4ccccc4nc4ccc(C)cc34)c2c1 | 5.87 |
| Cc1ccc2nc3ccc(C)cc3c(NCCCCCNc3c4cc(C)ccc4nc4ccc(C)cc34)c2c1 | 6.18 |
| Cc1ccc2nc3ccc(C)cc3c(NCCCNc3c4cc(C)ccc4nc4ccc(C)cc34)c2c1 | 5.87 |

----------
- Test summary: Binding affinity to 5'-biotin labeled c-myc promoter i-motif DNA Py33 (unknown origin) by surface plasmon resonance method
Property measured: Kd

| Input smiles | Property measured | Assay result |
| --- | --- | --- |
| Cc1ccc2nc3ccccc3c(NCCCN(C)CCCNc3c4ccccc4nc4ccc(C)cc34)c2c1 | Kd | 10.7 µM |
| Cc1ccc2nc3ccc(C(=O)NCCCN(C)C)cc3c(NCCCNCCNCCCNc3c4cc(C)ccc4nc4ccc(C(=O)NCCCN(C)C)cc34)c2c1 | Kd | 1 µM |
| c1ccc2c(NCCCNCCNCCCNc3c4ccccc4nc4ccccc34)c3ccccc3nc2c1 | Kd | 3.8 µM |
| c1ccc2c(NCCNCCNc3c4ccccc4nc4ccccc34)c3ccccc3nc2c1 | Kd | 12.3 µM |
| COC(=O)c1ccc2nc3ccc(C)cc3c(NCCOCCOCCNc3c4cc(C)ccc4nc4ccc(C(=O)OC)cc34)c2c1 | Kd | 10.3 µM |
| Cc1ccc2nc3ccc(C)cc3c(NCCCCCCNc3c4cc(C)ccc4nc4ccc(C)cc34)c2c1 | Kd | 12.4 µM |
| Cc1ccc2nc3ccc(C)cc3c(NCCOCCOCCNc3c4cc(C)ccc4nc4ccc(C)cc34)c2c1 | Kd | 26.2 µM |
| Cc1ccc2nc3ccccc3c(NCCOCCOCCNc3c4ccccc4nc4ccc(C)cc34)c2c1 | Kd | 13 µM |
| Cc1ccc2nc3ccc(C)cc3c(NCCCCNc3c4cc(C)ccc4nc4ccc(C)cc34)c2c1 | Kd | 16 µM |
| Cc1ccc2nc3ccc(C)cc3c(NCCCN(C)CCCNc3c4cc(C)ccc4nc4ccc(C)cc34)c2c1 | Kd | 10.5 µM |
| Cc1ccc2nc3ccccc3c(NCCCCCNc3c4ccccc4nc4ccc(C)cc34)c2c1 | Kd | 14.5 µM |

----------
- Subject of test: Quadruplex DNA
- Test summary: Binding affinity to 5'-biotin labeled c-myc promoter G-quadruplex DNA Pu27 (unknown origin) by surface plasmon resonance method
- Format: nucleic-acid assay
Collected Kd values appear next to each entry.

| Input smiles | Kd |
| --- | --- |
| Cc1ccc2nc3ccc(C(=O)NCCCN(C)C)cc3c(NCCCNCCNCCCNc3c4cc(C)ccc4nc4ccc(C(=O)NCCCN(C)C)cc34)c2c1 | 2.7 µM |
| Cc1ccc2nc3ccccc3c(NCCCCNc3c4ccccc4nc4ccc(C)cc34)c2c1 | 1.6 µM |
| Cc1ccc2nc3ccccc3c(NCCOCCOCCNc3c4ccccc4nc4ccc(C)cc34)c2c1 | 5.1 µM |
| c1ccc2c(NCCCCCCCNc3c4ccccc4nc4ccccc34)c3ccccc3nc2c1 | 11.6 µM |
| c1ccc2c(NCCCNc3c4ccccc4nc4ccccc34)c3ccccc3nc2c1 | 4.3 µM |
| c1ccc2c(NCCCNCCNCCCNc3c4ccccc4nc4ccccc34)c3ccccc3nc2c1 | 13.8 µM |
